Recorded values, source ChEMBL document CHEMBL1157645.

Below, each entry is listed with its recorded inhibition.
target.entity: DNA topoisomerase 2-alpha (Homo sapiens) (UniProt P11388)
Sequence (P11388 whole entry): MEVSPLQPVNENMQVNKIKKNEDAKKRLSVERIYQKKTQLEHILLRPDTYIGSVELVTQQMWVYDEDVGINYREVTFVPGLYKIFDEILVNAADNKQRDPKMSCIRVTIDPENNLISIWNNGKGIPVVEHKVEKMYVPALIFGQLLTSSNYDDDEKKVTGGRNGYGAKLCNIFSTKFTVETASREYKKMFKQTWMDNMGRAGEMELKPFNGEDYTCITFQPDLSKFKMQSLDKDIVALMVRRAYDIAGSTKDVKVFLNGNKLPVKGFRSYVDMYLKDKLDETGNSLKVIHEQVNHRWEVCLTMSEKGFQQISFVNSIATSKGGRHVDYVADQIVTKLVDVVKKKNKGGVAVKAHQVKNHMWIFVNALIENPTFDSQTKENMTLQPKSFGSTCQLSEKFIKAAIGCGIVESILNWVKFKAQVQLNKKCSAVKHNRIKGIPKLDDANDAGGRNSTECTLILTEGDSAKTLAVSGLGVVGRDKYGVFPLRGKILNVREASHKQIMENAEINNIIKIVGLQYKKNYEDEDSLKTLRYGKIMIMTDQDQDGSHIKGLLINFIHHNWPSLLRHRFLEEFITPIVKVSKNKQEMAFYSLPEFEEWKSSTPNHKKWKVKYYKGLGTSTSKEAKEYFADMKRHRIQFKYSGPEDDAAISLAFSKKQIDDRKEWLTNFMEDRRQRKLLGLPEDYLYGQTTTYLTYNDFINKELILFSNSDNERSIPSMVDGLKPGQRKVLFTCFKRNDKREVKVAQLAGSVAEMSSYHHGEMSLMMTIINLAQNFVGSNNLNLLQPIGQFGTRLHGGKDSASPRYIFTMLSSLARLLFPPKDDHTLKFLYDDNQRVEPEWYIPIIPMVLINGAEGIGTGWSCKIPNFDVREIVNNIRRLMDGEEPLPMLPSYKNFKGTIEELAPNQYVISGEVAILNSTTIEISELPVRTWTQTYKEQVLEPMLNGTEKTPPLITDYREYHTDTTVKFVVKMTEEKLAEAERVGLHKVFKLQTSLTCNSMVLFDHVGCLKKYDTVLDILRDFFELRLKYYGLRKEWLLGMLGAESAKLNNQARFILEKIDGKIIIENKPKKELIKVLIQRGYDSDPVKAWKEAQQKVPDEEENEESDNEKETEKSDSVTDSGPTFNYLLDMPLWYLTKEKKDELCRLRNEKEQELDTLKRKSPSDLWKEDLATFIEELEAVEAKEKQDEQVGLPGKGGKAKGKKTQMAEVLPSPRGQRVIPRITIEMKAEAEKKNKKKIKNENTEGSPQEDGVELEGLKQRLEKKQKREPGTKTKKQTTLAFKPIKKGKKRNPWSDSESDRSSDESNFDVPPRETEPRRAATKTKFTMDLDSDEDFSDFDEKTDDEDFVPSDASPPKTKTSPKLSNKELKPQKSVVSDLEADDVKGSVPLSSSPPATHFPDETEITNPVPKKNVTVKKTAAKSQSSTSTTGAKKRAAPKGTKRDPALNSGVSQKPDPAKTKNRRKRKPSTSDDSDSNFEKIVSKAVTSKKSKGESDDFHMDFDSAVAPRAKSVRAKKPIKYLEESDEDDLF
protocol.summary: Inhibition of human recombinant DNA topoisomerase 2 assessed as inhibition of relaxation of supercoiled pBR322 DNA at 100 uM by agarose gel electrophoresis
experimental.readout: inhibition (%)

INSERT INTO results (smiles_entry, measured_number) VALUES
  ('Clc1cccc(-c2cc(-c3ccc(Cl)o3)cc(-c3ccsc3)n2)c1', 75.9),
  ('Clc1ccc(-c2cc(-c3ccsc3)nc(-c3ccccc3Cl)c2)o1', 64.1),
  ('Clc1ccc(-c2cc(-c3ccoc3)cc(-c3cccs3)n2)cc1', 30.2);

----------
Let's look at some compounds and their measured inhibition.
target.entity: DNA topoisomerase 2-alpha (Homo sapiens)
protocol.summary: Inhibition of human recombinant DNA topoisomerase 2 assessed as inhibition of relaxation of supercoiled pBR322 DNA at 20 uM by agarose gel electrophoresis
experimental.readout: inhibition (%)

INSERT INTO results (smiles_entry, measured_number) VALUES
  ('Clc1ccc(-c2cc(-c3ccsc3)nc(-c3ccco3)c2)o1', 63.8),
  ('Cc1cccc(-c2cc(-c3ccc(Cl)o3)cc(-c3ccsc3)n2)c1', 56.7),
  ('Clc1ccc(-c2cc(-c3ccc(Cl)o3)cc(-c3cccs3)n2)cc1', 38.1),
  ('Clc1ccc(-c2cc(-c3ccsc3)nc(-c3ccccc3Cl)c2)o1', 59.5);

----------
target.entity: DNA topoisomerase 2-alpha (Homo sapiens) (UniProt P11388)
protocol.summary: Inhibition of human recombinant DNA topoisomerase 2 assessed as inhibition of relaxation of supercoiled pBR322 DNA at 100 uM by agarose gel electrophoresis
experimental.readout: inhibition (%)

INSERT INTO assay_data (smiles_entry, units_of_measure, measured_number) VALUES
  ('Clc1ccc(-c2cc(-c3ccsc3)nc(-c3ccccn3)c2)o1', '%', 63.1),
  ('Cc1ccc(-c2cc(-c3ccoc3)cc(-c3ccsc3)n2)cc1', '%', 14.2),
  ('Clc1ccc(-c2cc(-c3ccsc3)nc(-c3ccco3)c2)o1', '%', 78.6),
  ('Cc1ccc(-c2cc(-c3ccc(Cl)o3)cc(-c3ccsc3)n2)cc1', '%', 78.9),
  ('Cc1ccccc1-c1cc(-c2ccc(Cl)o2)cc(-c2ccsc2)n1', '%', 59.6),
  ('Clc1ccc(-c2cc(-c3cccs3)nc(-c3ccccc3Cl)c2)o1', '%', 35),
  ('Cc1cccc(-c2cc(-c3ccc(Cl)o3)cc(-c3ccsc3)n2)c1', '%', 64.1),
  ('Clc1ccc(-c2cc(-c3ccc(Cl)o3)cc(-c3cccs3)n2)cc1', '%', 42.5),
  ('Clc1ccc(-c2cc(-c3cccnc3)nc(-c3cccs3)c2)o1', '%', 51.5),
  ('Clc1ccc(-c2cc(-c3ccco3)nc(-c3cccs3)c2)o1', '%', 38.5),
  ('Clc1cccc(-c2cc(-c3ccc(Cl)o3)cc(-c3cccs3)n2)c1', '%', 44.7);

----------
target.entity: UniProt P11388
protocol.summary: Inhibition of human recombinant DNA topoisomerase 2 assessed as inhibition of relaxation of supercoiled pBR322 DNA at 100 uM by agarose gel electrophoresis
Reported inhibition values follow for various compounds
experimental.readout: inhibition

INSERT INTO results (smiles_entry, target_entity, experimental_readout, result) VALUES
  ('Clc1ccc(-c2cc(-c3ccc(Cl)o3)cc(-c3ccsc3)n2)cc1', 'UniProt P11388', 'inhibition', '75.9%'),
  ('Clc1ccc(-c2cc(-c3cccnc3)nc(-c3ccsc3)c2)o1', 'UniProt P11388', 'inhibition', '86.5%'),
  ('Clc1ccc(-c2cc(-c3ccoc3)cc(-c3ccsc3)n2)cc1', 'UniProt P11388', 'inhibition', '20.5%'),
  ('Cc1ccc(-c2cc(-c3ccc(Cl)o3)cc(-c3cccs3)n2)cc1', 'UniProt P11388', 'inhibition', '21.8%'),
  ('Clc1ccc(-c2cc(-c3ccco3)cc(-c3cccs3)n2)cc1', 'UniProt P11388', 'inhibition', '31.4%'),
  ('Cc1ccc(-c2cc(-c3ccc(Cl)o3)cc(-c3ccsc3)n2)o1', 'UniProt P11388', 'inhibition', '62.6%');

----------
target.entity: DNA topoisomerase 2-alpha (Homo sapiens) (UniProt P11388)
protocol.summary: Inhibition of human recombinant DNA topoisomerase 2 assessed as inhibition of relaxation of supercoiled pBR322 DNA at 20 uM by agarose gel electrophoresis
experimental.readout: inhibition (%)

INSERT INTO assay_data (smiles_entry, target_entity, units_of_measure, measured_number) VALUES
  ('Clc1ccc(-c2cc(-c3ccco3)nc(-c3cccs3)c2)o1', 'DNA topoisomerase 2-alpha (Homo sapiens) (UniProt P11388)', '%', 25.5),
  ('Clc1ccc(-c2cc(-c3cccnc3)nc(-c3cccs3)c2)o1', 'DNA topoisomerase 2-alpha (Homo sapiens) (UniProt P11388)', '%', 30.9),
  ('Clc1ccc(-c2cc(-c3ccsc3)nc(-c3ccccn3)c2)o1', 'DNA topoisomerase 2-alpha (Homo sapiens) (UniProt P11388)', '%', 60.9),
  ('Clc1cccc(-c2cc(-c3ccc(Cl)o3)cc(-c3ccsc3)n2)c1', 'DNA topoisomerase 2-alpha (Homo sapiens) (UniProt P11388)', '%', 75.4),
  ('Cc1ccc(-c2cc(-c3ccc(Cl)o3)cc(-c3ccsc3)n2)o1', 'DNA topoisomerase 2-alpha (Homo sapiens) (UniProt P11388)', '%', 34.7),
  ('Cc1ccccc1-c1cc(-c2ccc(Cl)o2)cc(-c2ccsc2)n1', 'DNA topoisomerase 2-alpha (Homo sapiens) (UniProt P11388)', '%', 46.3),
  ('Clc1ccc(-c2cc(-c3ccc(Cl)o3)cc(-c3ccsc3)n2)cc1', 'DNA topoisomerase 2-alpha (Homo sapiens) (UniProt P11388)', '%', 65.7),
  ('Clc1cccc(-c2cc(-c3ccc(Cl)o3)cc(-c3cccs3)n2)c1', 'DNA topoisomerase 2-alpha (Homo sapiens) (UniProt P11388)', '%', 32.7),
  ('Clc1ccc(-c2cc(-c3cccs3)nc(-c3ccccc3Cl)c2)o1', 'DNA topoisomerase 2-alpha (Homo sapiens) (UniProt P11388)', '%', 15.4),
  ('Cc1ccc(-c2cc(-c3ccc(Cl)o3)cc(-c3ccsc3)n2)cc1', 'DNA topoisomerase 2-alpha (Homo sapiens) (UniProt P11388)', '%', 70.2),
  ('Clc1ccc(-c2cc(-c3cccnc3)nc(-c3ccsc3)c2)o1', 'DNA topoisomerase 2-alpha (Homo sapiens) (UniProt P11388)', '%', 60.8);

----------
target.entity: UniProtKB P11387
Sequence (P11387 whole entry): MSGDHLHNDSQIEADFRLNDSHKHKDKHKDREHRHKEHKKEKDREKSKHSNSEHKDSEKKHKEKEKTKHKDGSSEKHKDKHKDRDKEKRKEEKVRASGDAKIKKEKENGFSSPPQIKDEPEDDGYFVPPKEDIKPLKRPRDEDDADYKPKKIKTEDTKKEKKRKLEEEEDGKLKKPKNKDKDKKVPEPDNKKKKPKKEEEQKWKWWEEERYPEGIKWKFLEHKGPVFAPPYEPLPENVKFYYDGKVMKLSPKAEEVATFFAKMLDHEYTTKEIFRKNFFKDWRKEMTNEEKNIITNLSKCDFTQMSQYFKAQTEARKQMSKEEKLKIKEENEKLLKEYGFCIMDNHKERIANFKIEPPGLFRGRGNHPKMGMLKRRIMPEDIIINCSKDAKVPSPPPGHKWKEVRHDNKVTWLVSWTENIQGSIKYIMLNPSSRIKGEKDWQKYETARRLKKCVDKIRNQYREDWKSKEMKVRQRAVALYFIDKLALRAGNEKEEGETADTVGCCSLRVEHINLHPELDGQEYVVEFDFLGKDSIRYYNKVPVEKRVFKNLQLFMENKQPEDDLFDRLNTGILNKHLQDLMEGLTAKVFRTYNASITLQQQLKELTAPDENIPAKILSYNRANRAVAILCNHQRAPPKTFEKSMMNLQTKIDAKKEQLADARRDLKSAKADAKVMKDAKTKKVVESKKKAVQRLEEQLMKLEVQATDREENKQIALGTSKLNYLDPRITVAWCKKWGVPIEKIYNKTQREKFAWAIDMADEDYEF
protocol.summary: Inhibition of human recombinant topoisomerase 1 assessed as inhibition of relaxation of supercoiled pBR322 DNA at 20 uM by agarose gel electrophoresis
inhibition values for the compounds below.
experimental.readout: inhibition

INSERT INTO assay_data (smiles_entry, target_entity, experimental_readout, result) VALUES
  ('Clc1ccc(-c2cc(-c3ccc(Cl)o3)cc(-c3cccs3)n2)cc1', 'UniProtKB P11387', 'inhibition', '6.3%'),
  ('Clc1cccc(-c2cc(-c3ccc(Cl)o3)cc(-c3cccs3)n2)c1', 'UniProtKB P11387', 'inhibition', '8.5%'),
  ('Cc1ccc(-c2cc(-c3ccc(Cl)o3)cc(-c3cccs3)n2)cc1', 'UniProtKB P11387', 'inhibition', '9.3%'),
  ('Clc1ccc(-c2cc(-c3ccc(Cl)o3)cc(-c3ccsc3)n2)cc1', 'UniProtKB P11387', 'inhibition', '5.2%'),
  ('Clc1ccc(-c2cc(-c3cccs3)nc(-c3ccccc3Cl)c2)o1', 'UniProtKB P11387', 'inhibition', '8%');
